Listing of entries alongside the reported IC50.
target: β-catenin/BCL9 PPI (Homo sapiens (Human)); experiment: AlphaScreen competitive inhibition assay of β-catenin/BCL9 PPI; details: mean ± standard deviation (n = 3)
Sequence (P35222 whole entry): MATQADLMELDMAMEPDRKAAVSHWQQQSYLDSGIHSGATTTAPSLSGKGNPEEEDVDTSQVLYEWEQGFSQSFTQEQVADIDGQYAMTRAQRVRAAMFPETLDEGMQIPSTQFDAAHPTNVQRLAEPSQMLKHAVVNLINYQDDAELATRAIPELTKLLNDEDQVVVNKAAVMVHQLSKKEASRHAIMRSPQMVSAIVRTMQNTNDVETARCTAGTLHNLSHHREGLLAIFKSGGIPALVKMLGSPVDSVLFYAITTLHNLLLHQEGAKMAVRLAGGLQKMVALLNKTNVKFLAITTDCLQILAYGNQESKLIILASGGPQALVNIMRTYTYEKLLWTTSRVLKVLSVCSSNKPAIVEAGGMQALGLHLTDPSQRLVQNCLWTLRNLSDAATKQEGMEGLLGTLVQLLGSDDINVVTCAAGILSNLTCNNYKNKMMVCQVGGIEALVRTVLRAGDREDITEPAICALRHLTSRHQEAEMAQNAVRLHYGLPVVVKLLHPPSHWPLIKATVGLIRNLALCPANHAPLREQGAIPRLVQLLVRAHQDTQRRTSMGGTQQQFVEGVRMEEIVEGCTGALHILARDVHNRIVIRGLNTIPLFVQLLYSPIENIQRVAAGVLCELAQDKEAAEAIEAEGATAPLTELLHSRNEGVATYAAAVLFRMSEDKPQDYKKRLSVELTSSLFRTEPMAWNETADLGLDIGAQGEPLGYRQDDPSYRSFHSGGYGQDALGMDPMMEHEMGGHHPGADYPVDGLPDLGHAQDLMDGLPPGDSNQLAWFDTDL
Where a name gives a salt, the structure may show the parent alone.

- compound: "CC(C)(O)C1CCN(c2cc(C(=O)N3CCC(Oc4cc(F)cc(N5CCNCC5)c4)CC3)ccc2O[C@H]2CCNC2)CC1"
  IC50: "≤ 50 µM"
- compound: "CC(C)(C)C1CCC(c2cc(C(=O)N3CCC(Oc4cc(N5CCNCC5)cc(F)c4F)CC3)ccc2O[C@H]2CCNC2)CC1 (stereo in doubt) [Compound 35, dihydrochloride]"
  IC50: "≤ 5 µM"
- compound: "CC(C)(C)c1ccc(-c2cc(C(=O)N3CCC(Oc4cc(F)cc(N5CCNCC5)c4)CC3)ccc2O[C@H]2CCNC2)cc1 [Compound 10, dihydrochloride]"
  IC50: "≤ 20 µM"
- compound: "CC(C)(C)C1CCC(c2cc(C(=O)N3CCC(Oc4cc(F)cc(N5CCNCC5)c4)CC3)ccc2O[C@H]2CCNC2)CC1 (stereo in doubt) [Compound 19, dihydrochloride]"
  IC50: "≤ 5 µM"
- compound: "O=C(c1ccc(O[C@H]2CCNC2)c(C2CCCCC2)c1)N1CCC(Oc2cc(F)cc(N3CCC4(CC3)CNC4)c2)CC1"
  IC50: "> 100 µM"
- compound: "O=C(c1ccc(O[C@H]2CCNC2)c(C2CCCCC2)c1)N1CCC(Oc2cc(F)cc(N3CCNCC3)c2)CC1 [Compound 1, dihydrochloride]"
  IC50: "≤ 60 µM"
- compound: "O=C(c1ccc(O[C@H]2CCNC2)c(C2CCC(C(F)(F)F)CC2)c1)N1CCC(Oc2cc(F)cc(N3CCNCC3)c2)CC1 (stereo in doubt) [Compound 18, dihydrochloride]"
  IC50: "≤ 20 µM"
- compound: "O=C(c1ccc(O[C@H]2CCNC2)c(C2CCCCC2)c1)N1CCC(Oc2cc(F)cc(N3CC4(CCNCC4)C3)c2)CC1"
  IC50: "> 100 µM"
- compound: "O=C(c1ccc(O[C@H]2CCNC2)c(C2CCCCC2)c1)N1CCC(Oc2cc(F)cc(N3C[C@H]4CNC[C@H]4C3)c2)CC1"
  IC50: "> 100 µM"
- compound: "CC(C)(C)[C@H]1CC[C@H](c2cc(C(=O)N3CCC(Oc4cc(N5CCNCC5)ccc4C#N)CC3)ccc2O[C@H]2CCNC2)CC1"
  IC50: "≤ 4 µM"
- compound: "Cn1cc(-c2cc(C(=O)N3CCC(Oc4cc(F)cc(N5CCNCC5)c4)CC3)ccc2O[C@H]2CCNC2)cn1 [Compound 13, dihydrochloride]"
  IC50: "≤ 10 µM"
- compound: "CC(C)(C)[C@H]1CC[C@@H](c2cc(C(=O)N3CCC(Oc4cc(N5CCNCC5)ccc4C#N)CC3)ccc2O[C@H]2CCNC2)CC1"
  IC50: "≤ 2 µM"
- compound: "O=C(c1ccc(O[C@H]2CCNC2)c(-c2ccc3cn[nH]c3c2)c1)N1CCC(Oc2cc(F)cc(N3CCNCC3)c2)CC1 [Compound 15, dihydrochloride]"
  IC50: "≤ 20 µM"
- compound: "CC(C)(C)C(=O)N1CCC(c2cc(C(=O)N3CCC(Oc4cc(F)cc(N5CCNCC5)c4)CC3)ccc2O[C@H]2CCNC2)CC1 [Compound 24, dihydrochloride]"
  IC50: "~100 µM"
- compound: "CC(C)C(=O)N1CCC(c2cc(C(=O)N3CCC(Oc4cc(F)cc(N5CCNCC5)c4)CC3)ccc2O[C@H]2CCNC2)CC1 [Compound 22, dihydrochloride]"
  IC50: "≤ 50 µM"
- compound: "CN(C)C(=O)c1ccc(N2CCNCC2)cc1OC1CCN(C(=O)c2ccc(O[C@H]3CCNC3)c(C3CCC(C(C)(C)C)CC3)c2)CC1 (stereo in doubt) [Compound 43, dihydrochloride]"
  IC50: "~100 µM"

Ref: patent US20240208940A1
